Please provide measured RBC for the entries that follow.
# Species on record: Rattus norvegicus
# Protocol: Open TG-GATES - Regimen: Daily Repeat
# Format: toxicity, organism-based, Sprague-Dawley
# Design: regimen Daily Repeat, gender Male, age 6 weeks
# Assay context: in vivo, po, 300 mg/kg, […], tissue Blood, route gavage, dose level Middle, time 28 day
Report only the number, with the unit x10_4/ul understood.

Input: Answer with the recorded RBC of CCOc1ccc(NC(=O)CC(C)O)cc1 (stereo not given) only.
Output: 760

Input: Answer with the recorded RBC of COc1ccc2[nH]c([S+]([O-])Cc3ncc(C)c(OC)c3C)nc2c1 (stereo not given) only.
Output: 773.8

Input: Answer with the recorded RBC of NC(N)=Nc1nc(CSCCC(N)=NS(N)(=O)=O)cs1 only.
Output: 768.2

Input: Answer with the recorded RBC of COC1=CC(=O)C[C@@H](C)[C@]12Oc1c(Cl)c(OC)cc(OC)c1C2=O only.
Output: 761

Input: Answer with the recorded RBC of CCOC(=O)CCC(=O)O[C@H]1[C@H](O[C@@H]2[C@@H](C)[C@H](O[C@H]3C[C@@](C)(OC)[C@@H](O)[C@H](C)O3)[C@@H](C)C(=O)O[C@H](CC)[C@@](C)(O)[C@H](O)[C@@H](C)C(=O)[C@H](C)C[C@@]2(C)O)O[C@H](C)C[C@@H]1N(C)C [ERYTHROMYCIN ETHYLSUCCINATE] only.
Output: 819.8

###

# Organism: Rattus norvegicus
# Protocol: Open TG-GATES - Regimen: Daily Repeat
# Type: toxicity, organism-based, Sprague-Dawley
# Design: regimen Daily Repeat, gender Male, age 6 weeks
# Assay context: in vivo, po, 0 mg/kg, […], tissue Blood, route gavage, dose level Control, time 14 day
Please provide measured APTT for the entries that follow.
Report only the number, with the unit s understood.

Input: Answer with the recorded APTT of CC1=C(/C=C/C(C)=C/C=C/C(C)=C/CO)C(C)(C)CCC1 only.
Output: 21.4

Input: Answer with the recorded APTT of COc1ccc2[nH]c([S+]([O-])Cc3ncc(C)c(OC)c3C)nc2c1 (configuration not stated) only.
Output: 19.5

Input: Answer with the recorded APTT of COC1=CC(=O)C[C@@H](C)[C@]12Oc1c(Cl)c(OC)cc(OC)c1C2=O only.
Output: 19.7

Input: Answer with the recorded APTT of CCCNC(=O)NS(=O)(=O)c1ccc(Cl)cc1 [CHLORPROPAMIDE] only.
Output: 18.5

Input: Answer with the recorded APTT of CN1C(=O)CN=C(c2ccccc2)c2cc(Cl)ccc21 only.
Output: 16.4

Input: Answer with the recorded APTT of CCOC(=O)CCC(=O)O[C@H]1[C@H](O[C@@H]2[C@@H](C)[C@H](O[C@H]3C[C@@](C)(OC)[C@@H](O)[C@H](C)O3)[C@@H](C)C(=O)O[C@H](CC)[C@@](C)(O)[C@H](O)[C@@H](C)C(=O)[C@H](C)C[C@@]2(C)O)O[C@H](C)C[C@@H]1N(C)C [ERYTHROMYCIN ETHYLSUCCINATE] only.
Output: 22.3

Input: Answer with the recorded APTT of O=C(CCCN1CCC(O)(c2ccc(Cl)cc2)CC1)c1ccc(F)cc1 only.
Output: 16.2

###

# Organism: Rattus norvegicus
# Protocol: Open TG-GATES - Regimen: Daily Repeat
# Assay type: toxicity, organism-based, Sprague-Dawley
# Design: regimen Daily Repeat, gender Male, age 6 weeks
# Assay context: in vivo, po, 1000 mg/kg, […], tissue Blood, route gavage, dose level High, time 14 day
Metric name: APTT (s)
Report only the number, with the unit s understood.

Input: Answer with the recorded APTT of CCOC(=O)CCC(=O)O[C@H]1[C@H](O[C@@H]2[C@@H](C)[C@H](O[C@H]3C[C@@](C)(OC)[C@@H](O)[C@H](C)O3)[C@@H](C)C(=O)O[C@H](CC)[C@@](C)(O)[C@H](O)[C@@H](C)C(=O)[C@H](C)C[C@@]2(C)O)O[C@H](C)C[C@@H]1N(C)C [ERYTHROMYCIN ETHYLSUCCINATE] only.
Output: 20.5

Input: Answer with the recorded APTT of COc1ccc2[nH]c([S+]([O-])Cc3ncc(C)c(OC)c3C)nc2c1 (stereo not given) only.
Output: 24.5

Input: Answer with the recorded APTT of CCOc1ccc(NC(=O)CC(C)O)cc1 (stereo not given) only.
Output: 21.6

Input: Answer with the recorded APTT of NC(N)=Nc1nc(CSCCC(N)=NS(N)(=O)=O)cs1 only.
Output: 23.4

Input: Answer with the recorded APTT of COC1=CC(=O)C[C@@H](C)[C@]12Oc1c(Cl)c(OC)cc(OC)c1C2=O only.
Output: 20.2

###

Please provide measured Cl for the entries that follow.
# Species: Rattus norvegicus
# Protocol: Open TG-GATES - Regimen: Single
# Type: toxicity, organism-based, Sprague-Dawley
# Parameters: regimen Single, gender Male, age 6 weeks
# Assay context: in vivo, po, 100 mg/kg, 9 h, tissue Plasma, route gavage, dose level Low
Report only the number, with the unit meq/L understood.

Input: Answer with the recorded Cl of COc1ccc2[nH]c([S+]([O-])Cc3ncc(C)c(OC)c3C)nc2c1 (centres undefined) [OMEPRAZOLE] only.
Output: 101

Input: Answer with the recorded Cl of CCOC(=O)CCC(=O)O[C@H]1[C@H](O[C@@H]2[C@@H](C)[C@H](O[C@H]3C[C@@](C)(OC)[C@@H](O)[C@H](C)O3)[C@@H](C)C(=O)O[C@H](CC)[C@@](C)(O)[C@H](O)[C@@H](C)C(=O)[C@H](C)C[C@@]2(C)O)O[C@H](C)C[C@@H]1N(C)C [ERYTHROMYCIN ETHYLSUCCINATE] only.
Output: 105.4

Input: Answer with the recorded Cl of NC(N)=Nc1nc(CSCCC(N)=NS(N)(=O)=O)cs1 [FAMOTIDINE] only.
Output: 103.6

Input: Answer with the recorded Cl of COC1=CC(=O)C[C@@H](C)[C@]12Oc1c(Cl)c(OC)cc(OC)c1C2=O [GRISEOFULVIN] only.
Output: 103.6

###

Please provide measured BUN for the entries that follow.
# Organism: Rattus norvegicus
# Protocol: Open TG-GATES - Regimen: Single
# Type: toxicity, organism-based, Sprague-Dawley
# Design: regimen Single, gender Male, age 6 weeks
# Assay context: in vivo, po, 30 mg/kg, 6 h, tissue Plasma, route gavage, dose level Middle
Report only the number, with the unit mg/dL understood.

Input: Answer with the recorded BUN of CN(C)CCN(Cc1cccs1)c1ccccn1 only.
Output: 12.8

Input: Answer with the recorded BUN of CC1=C(/C=C/C(C)=C/C=C/C(C)=C/CO)C(C)(C)CCC1 only.
Output: 8.8

Input: Answer with the recorded BUN of CN(C)CCCN1c2ccccc2CCc2ccccc21 only.
Output: 6.2

Input: Answer with the recorded BUN of CN(C)CCCN1c2ccccc2CCc2ccc(Cl)cc21 only.
Output: 7.2

###

# Organism: Rattus norvegicus
# Protocol: Open TG-GATES - Regimen: Single
# Assay type: toxicity, organism-based, Sprague-Dawley
# Parameters: regimen Single, gender Male, age 6 weeks
# Assay context: in vivo, po, 1000 mg/kg, 6 h, tissue Plasma, route gavage, dose level High
Please provide measured Na for the entries that follow.
Report only the number, with the unit meq/L understood.

Input: Answer with the recorded Na of COC1=CC(=O)C[C@@H](C)[C@]12Oc1c(Cl)c(OC)cc(OC)c1C2=O [GRISEOFULVIN] only.
Output: 141

Input: Answer with the recorded Na of COc1ccc2[nH]c([S+]([O-])Cc3ncc(C)c(OC)c3C)nc2c1 (centres undefined) [OMEPRAZOLE] only.
Output: 139.8

Input: Answer with the recorded Na of CCOC(=O)CCC(=O)O[C@H]1[C@H](O[C@@H]2[C@@H](C)[C@H](O[C@H]3C[C@@](C)(OC)[C@@H](O)[C@H](C)O3)[C@@H](C)C(=O)O[C@H](CC)[C@@](C)(O)[C@H](O)[C@@H](C)C(=O)[C@H](C)C[C@@]2(C)O)O[C@H](C)C[C@@H]1N(C)C [ERYTHROMYCIN ETHYLSUCCINATE] only.
Output: 138.8

Input: Answer with the recorded Na of NC(N)=Nc1nc(CSCCC(N)=NS(N)(=O)=O)cs1 [FAMOTIDINE] only.
Output: 141

###

# Species: Rattus norvegicus
# Protocol: Open TG-GATES - Regimen: Single
# Type: toxicity, organism-based, Sprague-Dawley
# Set-up: regimen Single, gender Male, age 6 weeks
# Assay context: in vivo, po, 100 mg/kg, 9 h, tissue Plasma, route gavage, dose level High
Metric name: LDH (IU/L)
Report only the number, with the unit IU/L understood.

Input: Answer with the recorded LDH of CN(C)CCCN1c2ccccc2CCc2ccccc21 only.
Output: 59.2

Input: Answer with the recorded LDH of CC1=C(/C=C/C(C)=C/C=C/C(C)=C/CO)C(C)(C)CCC1 only.
Output: 219.6

Input: Answer with the recorded LDH of CN(C)CCN(Cc1cccs1)c1ccccn1 only.
Output: 233.6

Input: Answer with the recorded LDH of CN(C)CCCN1c2ccccc2CCc2ccc(Cl)cc21 only.
Output: 91
